# test.target: Cytochrome P450 11B1, mitochondrial (Homo sapiens)
# Sequence (P15538 whole entry): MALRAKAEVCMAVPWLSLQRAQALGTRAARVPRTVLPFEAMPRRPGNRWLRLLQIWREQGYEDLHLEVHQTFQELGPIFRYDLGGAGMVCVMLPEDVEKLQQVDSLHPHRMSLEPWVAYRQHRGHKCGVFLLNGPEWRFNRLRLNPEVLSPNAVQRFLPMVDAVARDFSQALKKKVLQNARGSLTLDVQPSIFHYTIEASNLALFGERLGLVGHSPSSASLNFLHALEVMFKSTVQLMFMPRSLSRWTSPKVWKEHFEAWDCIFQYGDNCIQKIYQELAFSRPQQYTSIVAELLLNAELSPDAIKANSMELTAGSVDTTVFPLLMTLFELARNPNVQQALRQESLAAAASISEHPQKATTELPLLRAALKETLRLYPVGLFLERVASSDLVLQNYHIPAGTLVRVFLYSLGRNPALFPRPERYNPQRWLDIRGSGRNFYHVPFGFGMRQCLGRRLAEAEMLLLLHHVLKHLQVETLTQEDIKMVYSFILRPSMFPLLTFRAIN
# protocol: Inhibition of human CYP11B1 expressed in hamster V79MZh cells using [1,2-3H]-11-deoxycorticosterone as substrate
measure.name: IC50 (µM)
Numbers only, in µM.

Check out these entries, answers already filled in.
• COc1ccc2ccc(-c3cccnc3)c(F)c2c1 = 1.61
• COc1cncc(-c2ccc3ccc(O)cc3c2Cl)c1 = 0.245
• COc1cncc(-c2ccc3ccc(OC)cc3c2Cl)c1 = 0.447
• Oc1ccc2ccc(-c3cncc(F)c3)c(Cl)c2c1 = 0.45

Hi team, please reply with IC50 for each item in this list.
1. COc1ccc2ccc(-c3cncc(F)c3)c(Cl)c2c1
2. COc1ccc2ccc(-c3cncnc3)c(Cl)c2c1
3. Oc1ccc2ccc(-c3cncnc3)c(Cl)c2c1
4. Oc1ccc2ccc(-c3cncc4ccccc34)c(Cl)c2c1
5. Oc1ccc2ccc(-c3cccnc3)c(Cl)c2c1

Found:
1: 1.41; 2: 12.3; 3: 2.43; 4: 0.238; 5: 0.235
